assay: Selectivity ratio of Ki for sigma 1 receptor in guinea pig brain membranes to Ki for sigma 2 receptor (unknown origin); format: cell membranes
# if value of Ratio Ki reaches 2, tag Criterion met; if it stays below, tag Criterion not met

[
  {
    "structure notation": "O=[N+]([O-])c1ccc(NCCCCN2CCC(Cc3ccccc3)CC2)cc1C(F)(F)F",
    "classification": "Criterion met"
  },
  {
    "structure notation": "COc1cc2c(cc1OC)CN(CCNc1ccc([N+](=O)[O-])c(C(F)(F)F)c1)CC2",
    "classification": "Criterion met"
  },
  {
    "structure notation": "COc1cc2c(cc1OC)CN(CCCCCNc1ccc([N+](=O)[O-])c(C(F)(F)F)c1)CC2",
    "classification": "Criterion not met"
  },
  {
    "structure notation": "COc1cc2c(cc1OC)CN(CCCNc1ccc([N+](=O)[O-])c(C(F)(F)F)c1)CC2",
    "classification": "Criterion met"
  },
  {
    "structure notation": "O=[N+]([O-])c1ccc(NCCCN2CCC(Cc3ccccc3)CC2)cc1C(F)(F)F",
    "classification": "Criterion not met"
  },
  {
    "structure notation": "COc1cc2c(cc1OC)CN(CCCCNc1ccc([N+](=O)[O-])c(C(F)(F)F)c1)CC2",
    "classification": "Criterion not met"
  },
  {
    "structure notation": "O=[N+]([O-])c1ccc(NCCN2CCC(Cc3ccccc3)CC2)cc1C(F)(F)F",
    "classification": "Criterion not met"
  },
  {
    "structure notation": "O=[N+]([O-])c1ccc(NCCCCCN2CCC(Cc3ccccc3)CC2)cc1C(F)(F)F",
    "classification": "Criterion not met"
  }
]

Reference source for all entries: ChEMBL document CHEMBL4020818
